assayTarget: Dual specificity tyrosine-phosphorylation-regulated kinase 1A (Rattus norvegicus)
Format: biochemical, Homo sapiens
Active and inactive are the calls of the source.
Provide the recorded AC50 for the entries that follow.

input: Indicate its recorded AC50; the compound in question is NC(=S)c1ccc(C(N)=S)o1
output: 14.3 µM (active)

input: Provide AC50 value for the following compound: O=c1cc(-c2ccccc2)oc2cc(O)c(O)c(O)c12 [BAICALEIN]
output: 14.5 µM (active)

input: In one line, give reported AC50 of the entry CC(=O)Nc1ccc(/C=C/c2nc3ccccc3o2)cc1 .
output: 1.2 µM (active)

input: Indicate its recorded AC50; the compound in question is CC(=O)Nc1ccc(Nc2cc(C)nc3c(-c4ccccc4)cnn23)cc1
output: 5.54 µM (active)

* * *

assayTarget: Sentrin-specific protease 8 (Homo sapiens, UniProt Q96LD8);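 also: luminescence read-out of SENP8 inhibition, dose-response confirmation following an ultra-high-throughput screen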
Sequence (Q96LD8 whole entry): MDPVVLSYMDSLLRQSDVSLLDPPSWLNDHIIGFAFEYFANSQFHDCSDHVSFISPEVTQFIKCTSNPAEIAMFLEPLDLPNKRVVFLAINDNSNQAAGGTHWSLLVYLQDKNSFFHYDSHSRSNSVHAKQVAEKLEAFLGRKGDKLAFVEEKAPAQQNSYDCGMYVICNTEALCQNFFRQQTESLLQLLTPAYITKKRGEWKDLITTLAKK
Format: functional
Calls of active or inactive are those of the source.
Your response should consist of one outcome taken from active, inactive

input: # fetch the recorded call for CC(=O)c1cccc2c1N=C(c1[nH]c3ccccc3c1O)C2=O here
output: active

input: Please let me know the test result on file for CCOC(=O)c1ccc(Nc2cnc3ccccc3n2)cc1 .
output: inactive

input: Please state the recorded outcome for this molecule: CCCC[n+]1ccn(C2=C([N-]S(=O)(=O)c3ccc(Cl)cc3)C(=O)c3ccccc3C2=O)c1
output: active

input: Short answer needed: outcome of this test for O=[N+]([O-])c1ccc(N/N=N/c2ccccc2)cc1 ?
output: active

* * *

protocolDescription: HEp-2 cell cytotoxicity, dose response, cytotoxicity control for RSV inhibitor project, HTS (AID 2410)
Assay type: functional
measurementParameters: human respiratory syncytial virus
Activity calls are given as the source filed them.
For each of the molecules below, state its CC50.

input: Give CC50 for COc1ccc(-c2cc(C(=O)N/N=C/c3ccc4c(c3)OCO4)c3ccccc3n2)c(OC)c1
output: 44.4 µM (active)

input: Report CC50 for COc1ccc(NC(=O)N2CCN(c3nc(-c4cccc(OC)c4)cs3)CC2)cc1
output: 9.75 µM (active)

input: For the molecule CC(C(=O)NCCc1ccccc1)N1c2cccc3cccc(c23)S1(=O)=O (stereo not given) , give its reported CC50.
output: 45.6 µM (active)

input: Please report CC50 for the following molecule: O=C(c1ccco1)N1CCN(C(=O)C2CCCc3c2[nH]c2ccc(Cl)cc32)CC1 (stereo not given)
output: 16.2 µM (active)

input: # return recorded CC50 for entry COc1ccc(-c2cc(-c3ccccc3O)[nH]n2)cc1OC
output: > 50 µM (active)

* * *

protocolDescription: P. falciparum Dd2 growth inhibitors, dose response, SYBR Green, dry powder samples (AID 1159566);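 also: potency for growth inhibition with lower SYBR green DNA signal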
Assay type: functional, cell-based
The source made the active and inactive calls.
For each record, write down the corresponding AC50.

input: # return recorded AC50 for entry C[C@H]1CN([C@@H](C)CO)C(=O)c2c(c3ccccc3n2C)-c2ccccc2CO[C@@H]1CN(C)C(=O)Nc1cccc(C(F)(F)F)c1
output: 442 nM (active)

input: Name the recorded AC50 of the item C[C@H](CO)N1C[C@H](C)[C@@H](CN(C)C(=O)C2CCCCC2)Oc2ncc(/C=C/c3ccccc3)cc2C1=O in your answer.
output: 350 nM (active)

input: Assign AC50 to the following record: COc1ccc(C#Cc2ccc3c(c2)[C@H]2[C@H](CCN2Cc2ccncc2)[C@H](CO)N3)cc1
output: 922 nM (active)

input: In one line, give reported AC50 of the entry COc1ccc2c3c([nH]c2c1)[C@H](CO)N(C(=O)Cc1ccccc1)CC31CCN(C(=O)Nc2ccccc2F)CC1 .
output: 208 nM (active)
